Provenance of the data: patent US20230053688A1

- System: LMP1 expression in Kem I cells
- ASSAY_REMARKS: microbe, parasite or virus in culture
- Type: cell-based, EBV
- EXPERIMENTAL_PARAMETERS: human gammaherpesvirus 4, 48 h, read-out: Replicate 2-LMP1 Fold Increase, Kem I cells, 2.5 uM, 48 hours, fold change in LMP1 transcript vs vehicle
Where a name gives a salt, the structure may show the parent alone.
Flag rule - fold induction at 2.5 µM less than 0.4 flags 1.0; the remaining entries get 0.0.

Prompt: Consider CCc1cccc2c3c([nH]c12)C(CC)(CC(=O)O)OCC3 (stereo not drawn) . Does its fold induction at 2.5 µM lie strictly below 0.4?
Completion: 0.0

Prompt: Same read-out for CC(C)C[C@H](NC(=O)CNC(=O)c1cc(Cl)ccc1Cl)B(O)O ?
Completion: 0.0

Prompt: Same read-out for CC12CC3CC(C)(C1)CC(N)(C3)C2 [Memantine HCl] ?
Completion: 1.0

Prompt: Same read-out for Cc1nc(C(=O)NCC(=O)O)c(O)c2ccc(Oc3ccccc3)cc12 ?
Completion: 1.0

Prompt: Same read-out for CC#CCn1c(N2CCC[C@@H](N)C2)nc2c1c(=O)n(Cc1nc(C)c3ccccc3n1)c(=O)n2C ?
Completion: 0.0

Prompt: Same read-out for C[C@H](CS)C(=O)N1CCC[C@H]1C(=O)O ?
Completion: 0.0

Prompt: Same read-out for CCOC(=O)c1cncn1[C@H](C)c1ccccc1 [Etomidate] ?
Completion: 0.0

Prompt: Same read-out for COC(=O)C1=C(C#N)NC(C)=C(C(=O)OC(C)C)C1c1cccc([N+](=O)[O-])c1 (stereo not drawn) ?
Completion: 0.0

Prompt: Same read-out for C=C1C(=O)O[C@@H]2/C=C(\C)CC/C=C(\C)CC[C@@H]12 [Costunolide] ?
Completion: 0.0

Prompt: Same read-out for C=C[C@@]1(C)CC(=O)[C@]2(O)[C@@]3(C)[C@@H](O)CCC(C)(C)[C@@H]3[C@H](O)[C@H](OC(C)=O)[C@@]2(C)O1 ?
Completion: 0.0

Prompt: Same read-out for COCCCC/C(=N\OCCN)c1ccc(C(F)(F)F)cc1 [Fluvoxamine maleate] ?
Completion: 1.0

Prompt: Same read-out for CC(NC(=O)c1ccccc1/N=C/c1c(O)ccc2ccccc12)c1ccccc1 (stereo not drawn) ?
Completion: 0.0

###

- Test system: LMP1 expression in Kem I cells
- ASSAY_REMARKS: microbe, parasite or virus in culture
- Format: cell-based, EBV
- EXPERIMENTAL_PARAMETERS: human gammaherpesvirus 4, 48 h, read-out: Average LMP1 Fold Increase, Kem I cells, 2.5 uM, 48 hours, average of replicates 1 and 2
Structures can show the parent of a compound that is named as a salt.
REPORTED_METRIC: fold induction at 2.5 µM
// print number alone

Prompt: Could you share which fold induction at 2.5 µM value was measured for CC(C)n1c(/C=C/C(O)CC(O)CC(=O)O)c(-c2ccc(F)cc2)c2ccccc21 (centres unmarked) [Fluvastatin Sodium] ?
Completion: 0.94

Prompt: Same read-out for C#CCN[C@@H]1CCc2ccccc21 [Rasagiline Mesylate] ?
Completion: 0.69

Prompt: Same read-out for CCN(CC)C(=O)/C(C#N)=C/c1cc(O)c(O)c([N+](=O)[O-])c1 [Entacapone] ?
Completion: 0.6

Prompt: Same read-out for Cc1cc(Nc2ncc(Cl)c(Nc3ccccc3S(=O)(=O)C(C)C)n2)c(OC(C)C)cc1C1CCNCC1 [LDK378] ?
Completion: 0.67

Prompt: Same read-out for CC(C)(C#N)c1cc(Cn2cncn2)cc(C(C)(C)C#N)c1 [Anastrozole] ?
Completion: 0.94

Prompt: Same read-out for O=C(/C=C/c1ccc(O)c(O)c1)OCCc1ccccc1 [Caffeic Acid Phenethyl Ester] ?
Completion: 0.46

Prompt: Same read-out for O=C(Nc1cccc(C(F)(F)F)c1)Nc1cc(S(=O)(=O)NC2CC2)ccc1-c1ccsc1 [AGI-6780] ?
Completion: 1.51

Prompt: Same read-out for CC(C)CC(=O)Nc1[nH]nc2c1CN(C(=O)C1CCN(C)CC1)C2(C)C [PHA-793887] ?
Completion: 2.82

###

- Test system: LMP1 expression in Kem I cells
- ASSAY_REMARKS: microbe, parasite or virus in culture
- Format: cell-based, EBV
- EXPERIMENTAL_PARAMETERS: human gammaherpesvirus 4, 48 h, read-out: Replicate 2-LMP1 Fold Increase, Kem I cells, 2.5 uM, 48 hours, fold change in LMP1 transcript vs vehicle
REPORTED_METRIC: fold induction at 2.5 µM
// print number alone

Prompt: Could you share which fold induction at 2.5 µM value was measured for NC(=O)c1ncn([C@@H]2O[C@H](CO)[C@@H](O)[C@H]2O)c1N ?
Completion: 0.59

Prompt: Same read-out for COc1cc(N2CCC(N3CCN(C)CC3)CC2)ccc1Nc1ncc(Cl)c(Nc2ccccc2P(C)(C)=O)n1 ?
Completion: 0.77

Prompt: Same read-out for Cc1cc(OCc2nnc(SC3CCCC3)n2-c2cccnc2)ccc1-c1ccc(S(C)(=O)=O)cc1 ?
Completion: 0.95

###

- Test system: LMP1 expression in Kem I cells
- ASSAY_REMARKS: microbe, parasite or virus in culture
- Assay type: cell-based, EBV
- EXPERIMENTAL_PARAMETERS: human gammaherpesvirus 4, 48 h, read-out: Replicate 1-LMP1 Fold Increase, Kem I cells, 2.5 uM, 48 hours, fold change in LMP1 transcript vs vehicle
Exercise: for every item that follows, state its recorded fold induction at 2.5 µM.

Prompt: Hello, I am looking for reported fold induction at 2.5 µM with LMP1 expression in Kem I cells for C[C@@H](O[C@H]1OCCN(Cc2n[nH]c(=O)[nH]2)[C@H]1c1ccc(F)cc1)c1cc(C(F)(F)F)cc(C(F)(F)F)c1 [Aprepitant] . Could you help?
Completion: 1.58

Prompt: Same read-out for COc1ccccc1N1CCN(CC(O)COc2cccc3ccccc23)CC1 (stereo not drawn) ?
Completion: 1.36

Prompt: Same read-out for Oc1cc(O)cc(/C=C/c2ccc(O)c(O)c2)c1 ?
Completion: 0.83

###

- Test system: LMP1 expression in Kem I cells
- ASSAY_REMARKS: microbe, parasite or virus in culture
- Format: cell-based, EBV
- EXPERIMENTAL_PARAMETERS: human gammaherpesvirus 4, 48 h, read-out: Replicate 2-LMP1 Fold Increase, Kem I cells, 2.5 uM, 48 hours, fold change in LMP1 transcript vs vehicle
REPORTED_METRIC: fold induction at 2.5 µM
// print number alone

Prompt: Hello, I am looking for reported fold induction at 2.5 µM with LMP1 expression in Kem I cells for CCOC(=O)[C@H]1O[C@@H]1C(=O)N[C@@H](CC(C)C)C(=O)NCCC(C)C . Could you help?
Completion: 0.12

Prompt: Same read-out for CNC(=C[N+](=O)[O-])NCCSCc1ccc(CN(C)C)o1 ?
Completion: 1.18

Prompt: Same read-out for CCOC(=O)C1=C(COCCN)NC(C)=C(C(=O)OC)C1c1ccccc1Cl (stereo not shown) ?
Completion: 3.61

Prompt: Same read-out for CCOC(=O)N1CCC(=C2c3ccc(Cl)cc3CCc3cccnc32)CC1 ?
Completion: 0.32

###

- Test system: LMP1 expression in Kem I cells
- ASSAY_REMARKS: microbe, parasite or virus in culture
- Format: cell-based, EBV
- EXPERIMENTAL_PARAMETERS: human gammaherpesvirus 4, 48 h, read-out: Replicate 1-LMP1 Fold Increase, Kem I cells, 2.5 uM, 48 hours, fold change in LMP1 transcript vs vehicle
Entry flag: 1 (yes) if fold induction at 2.5 µM reaches 0.6; 0 (no) if it does not.

Prompt: Tell me whether fold induction at 2.5 µM is at least 0.6 here: Cc1cc(OCc2nnc(SC3CCCC3)n2-c2cccnc2)ccc1-c1ccc(S(C)(=O)=O)cc1 [NMS-873]
Completion: 1 (yes)

Prompt: Same read-out for COCCOc1ccc2c(c1)ncn2-c1ccc2cccc(N3CCC(N)CC3)c2n1 [CP-673451] ?
Completion: 0 (no)

Prompt: Same read-out for CNC(=C[N+](=O)[O-])NCCSCc1ccc(CN(C)C)o1 [Ranitidine] ?
Completion: 1 (yes)

Prompt: Same read-out for NC(=O)N1c2ccccc2CC(=O)c2ccccc21 [Oxcarbazepine] ?
Completion: 0 (no)

Prompt: Same read-out for CC(=O)Nc1nc2c(Oc3cc(-c4ccc(C(F)(F)F)cc4)ncn3)cccc2s1 [AMG-517] ?
Completion: 0 (no)

Prompt: Same read-out for NC(=O)c1ncn([C@@H]2O[C@H](CO)[C@@H](O)[C@H]2O)c1N [Acadesine] ?
Completion: 0 (no)

Prompt: Same read-out for CCN(CC)C(=O)/C(C#N)=C/c1cc(O)c(O)c([N+](=O)[O-])c1 [Entacapone] ?
Completion: 0 (no)

Prompt: Same read-out for COc1ccc(-n2nc(C(N)=O)c3c2C(=O)N(c2ccc(N4CCCCC4=O)cc2)CC3)cc1 [Apixaban] ?
Completion: 0 (no)

Prompt: Same read-out for CCOc1ccccc1-n1c(C(C)N2CCN(C(=O)COc3ccc(Cl)cc3)CC2)nc2ccccc2c1=O (stereo not shown) [Erastin] ?
Completion: 1 (yes)
